# targetSystem: collagen
# methodNotes: SILY binding to collagen (Biacore surface plasmon resonance)
# assayContext: calculated from the on-off binding kinetics; collagen immobilized on CM-3 chip
experimentalReadout: pKd
Reminder that pKd is minus the log10 of a molar concentration.

Query: Specify reported pKd for the sequence shown: `RRANAALKAGELYKSILYGC`
Reply: 5.92

Where do the numbers come from? From patent US10689425B2.
